# Target Or Test System: Recombinant Human Poly(ADP-Ribose) Polymerase (PARP), PARP-1 (Homo sapiens (Human), UniProt P09874)
# Sequence (P09874 whole entry): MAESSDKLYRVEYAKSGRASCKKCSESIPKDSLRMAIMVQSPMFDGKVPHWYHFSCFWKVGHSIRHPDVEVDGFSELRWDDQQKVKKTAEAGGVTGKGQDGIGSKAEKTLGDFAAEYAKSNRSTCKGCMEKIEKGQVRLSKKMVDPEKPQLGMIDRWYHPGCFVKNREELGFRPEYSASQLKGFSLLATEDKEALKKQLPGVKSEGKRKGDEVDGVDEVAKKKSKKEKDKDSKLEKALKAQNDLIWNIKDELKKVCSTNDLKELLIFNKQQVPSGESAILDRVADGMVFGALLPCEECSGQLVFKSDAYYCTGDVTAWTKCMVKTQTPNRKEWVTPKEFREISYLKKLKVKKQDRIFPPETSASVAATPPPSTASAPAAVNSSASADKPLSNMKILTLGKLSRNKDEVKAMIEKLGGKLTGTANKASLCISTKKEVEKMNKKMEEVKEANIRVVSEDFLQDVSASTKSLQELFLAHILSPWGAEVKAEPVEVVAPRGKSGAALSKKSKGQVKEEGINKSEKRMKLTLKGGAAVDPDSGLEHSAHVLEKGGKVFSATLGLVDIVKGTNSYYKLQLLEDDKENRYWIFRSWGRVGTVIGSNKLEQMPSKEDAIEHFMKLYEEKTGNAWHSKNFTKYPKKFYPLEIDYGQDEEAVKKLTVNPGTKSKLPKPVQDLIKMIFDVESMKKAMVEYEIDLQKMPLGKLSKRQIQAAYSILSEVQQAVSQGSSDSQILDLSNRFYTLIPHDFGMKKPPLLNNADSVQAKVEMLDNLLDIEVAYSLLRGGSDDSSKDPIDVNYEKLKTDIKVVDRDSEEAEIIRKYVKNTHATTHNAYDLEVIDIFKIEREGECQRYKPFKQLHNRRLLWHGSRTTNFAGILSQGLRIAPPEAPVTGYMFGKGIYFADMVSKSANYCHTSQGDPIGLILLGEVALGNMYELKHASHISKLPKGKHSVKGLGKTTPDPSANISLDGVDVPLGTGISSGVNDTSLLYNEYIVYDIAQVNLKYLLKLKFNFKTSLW
# Test Parameters: read-out: PARP-1 (Ki); Table 1; text calls the values EC50s
Reported Endpoint: Ki (nM)

* CN1CCCN(C(=O)c2cc(Cc3n[nH]c(=O)c4c3CCCC4)ccc2F)CC1 | 1.5
* CC(=O)N1CCC(C(=O)Nc2cccc(Cc3n[nH]c(=O)c4c3CCCC4)c2)CC1 | 126

P. O=C(Nc1cccc(Cc2n[nH]c(=O)c3c2CCCC3)c1)c1nccs1
Q. CC(C)C(=O)N1CCN(C(=O)c2cc(Cc3n[nH]c(=O)c4c3NCCC4)ccc2F)CC1
Hi there! Just curious which has the higher Ki between P and Q . Record your answer as the label of the chosen record.
P
(P: 203 nM, Q: 1.4 nM)

1. O=C(c1cnc2ccccc2c1)N1CCCN(C(=O)c2cc(Cc3n[nH]c(=O)c4c3NCCC4)ccc2F)CC1
2. CC(C)(C)OC(=O)N1CCN(C(=O)OCc2ccccc2)CC1Cc1n[nH]c(=O)c2c1CCCC2 (stereo not shown)
Hi there! Just curious which has the higher Ki between 1 and 2 . Record your answer as the label of the chosen record.
2

---

# Target Or Test System: Recombinant Human Poly(ADP-Ribose) Polymerase (PARP), PARP-1 (Homo sapiens (Human), UniProt P09874)
# Test Parameters: read-out: PARP-1 (Ki); Table 1; text calls the values EC50s
Reported Endpoint: Ki (nM)

I. CN(C)c1ccc(NC(=O)c2cccc(Cc3n[nH]c(=O)c4c3CCCC4)c2)cc1
II. O=C(c1cc(Cc2n[nH]c(=O)c3c2CCCC3)ccc1F)N1CCN(c2ccccc2)CC1
III. O=C(NCCc1c[nH]c2ccccc12)c1cccc(Cc2n[nH]c(=O)c3c2CCCC3)c1
IV. Nc1cc(Cc2n[nH]c(=O)c3c2CCCC3)ccc1Cl
V. Cc1c(F)cccc1C(=O)Nc1cccc(Cc2n[nH]c(=O)c3c2CCCC3)c1
Order the above compounds by increasing Ki. Note for the reader: the ranking is given by listing the labels in the order requested.
II, III, I, IV, V

---

# Target Or Test System: Recombinant Human Poly(ADP-Ribose) Polymerase (PARP), PARP-1 (Homo sapiens (Human), UniProt P09874)
# Test Parameters: read-out: PARP-1 (Ki); Table 1; text calls the values EC50s
Reported Endpoint: Ki (nM)

Worked cases, answers included:
* Cc1cc(NC(=O)c2cccc(Cc3n[nH]c(=O)c4c3CCCC4)c2)ccc1Cl [Example 343] | 87
* O=C(Nc1ccc(F)cc1F)Nc1cc(Cc2n[nH]c(=O)c3c2CCCC3)ccc1F [Example 541] | 71

1. CSc1ccc(Cl)c(C(=O)Nc2cccc(Cc3n[nH]c(=O)c4c3CCCC4)c2)c1 [Example 237]
2. COc1ccc(C)cc1NC(=O)c1cccc(Cc2n[nH]c(=O)c3c2CCCC3)c1 [Example 351]
3. CN(C(=O)c1cc(Cc2n[nH]c(=O)c3c2NCCC3)ccc1F)C1CCN(C(=O)c2cn[nH]c2)CC1 [Example 718]
Order the records, beginning with the lowest Ki and ending with the highest. Note for the reader: the ranking is given by listing the labels in the order requested.
3, 1, 2

P. Cn1cnc(C(=O)N2CCCN(C(=O)c3cc(Cc4n[nH]c(=O)c5c4CCCC5)ccc3F)CC2)c1 [Example 636]
Q. O=C(NC1CNC1)c1cccc(Cc2n[nH]c(=O)c3c2CCCC3)c1 [Example 56]
R. O=C(Nc1cccc(Cc2n[nH]c(=O)c3c2CCCC3)c1)c1ccccc1Cc1ccccc1 [Example 239]
S. COc1cccc(CCNC(=O)c2cccc(Cc3n[nH]c(=O)c4c3CCCC4)c2)c1 [Example 383]
T. COc1ccc(C(C)(C)C)cc1NC(=O)c1cccc(Cc2n[nH]c(=O)c3c2CCCC3)c1 [Example 356]
Please give the order of these molecules when sorted by Ki, largest value leading. Note for the reader: the ranking is given by listing the labels in the order requested.
R, T, S, Q, P

I. O=C(c1cscn1)N1CCN(C(=O)c2cc(Cc3n[nH]c(=O)c4c3NCCC4)ccc2F)CC1 [Example 705]
II. CN1CCN(C(=O)c2cc(Cc3n[nH]c(=O)c4c3NCCC4)ccc2F)CC1=O [Example 697]
III. O=C(NC1CCC(O)CC1)c1cc(Cc2n[nH]c(=O)c3c2NCCC3)ccc1F (centres unmarked) [Example 709]
IV. CN(C)CCN1CCN(C(=O)c2cc(Cc3n[nH]c(=O)c4c3CCCC4)ccc2F)CC1 [Example 501]
Order the records, beginning with the lowest Ki and ending with the highest. Note for the reader: the ranking is given by listing the labels in the order requested.
I, II, IV, III
(I: 1.4 nM, II: 2.2 nM, IV: 4 nM, III: 53 nM)
